# pIC50 per record follows
targetEntity: σ-receptor
assaySummary: Inhibition of [3H]-(+)-3-PPP binding to the σ-receptor in rat cerebral cortex membranes
conditionsUsed: 2nM [3H]-(+)-3-PPP, 90 min at 25° C., non-specific binding defined with 1μM haloperidol, read-out: IC50, concentration which inhibits 50 percent of the [3H]-(+)-3-PPP binding
Please note pIC50 is a logarithmic value: minus log10 of concentration in mol/L. Answer with that number alone.

Previously resolved entries follow.
- compound: "C[C@H]([C@H](O)c1ccc(O)cc1)N1CCC(Cc2ccccc2)CC1 (relative stereo)"
  reportedValue: 8.00
- compound: "OC(CN1CCC(Cc2ccc(F)cc2)CC1)c1ccc(Cl)cc1 (single isomer, unassigned) [Compound 7]"
  reportedValue: 8.01
- compound: "OC(CN1CCC(Cc2ccc(F)cc2)CC1)c1ccc(Cl)cc1 (racemic) [Compound 5]"
  reportedValue: 8.52
- compound: "C[C@@H]([C@H](O)c1ccc(O)cc1)N1CCC(Cc2ccccc2)CC1 (single isomer, unassigned) [Compound 4]"
  reportedValue: 8.15
- compound: "OC(CN1CCC(Cc2ccc(F)cc2)CC1)c1ccc(Cl)cc1 (single isomer, unassigned) [Compound 6]"
  reportedValue: 8.04
- compound: "C[C@@H]([C@H](O)c1ccc(O)cc1)N1CCC(Cc2ccccc2)CC1 (relative stereo) [Compound 1]"
  reportedValue: 8.10

Turning to the following compound.
I'd like to know its pIC50. The compound in question is C[C@@H]([C@H](O)c1ccc(O)cc1)N1CCC(Cc2ccccc2)CC1 (single isomer, unassigned) [Compound 3]
7.82
